- assay-name: Toxicity in mouse at 225 mg/kg
- Type: organism-based
- Design: dose 225 mg/kg
- measurement-conditions: in vivo
experimental-readout: LD50 (mg/kg)

C=C1C(=O)[C@H](OC(C)=O)/C=C(\C)C(=O)[C@H](O)[C@@H]2[C@@H]1CC2(C)C :: 225

Each recorded value in this set is attributed to ChEMBL document CHEMBL1146486.
